- TEST_SYSTEM: recombinant human LRRK2 (catalytic domain only [amino acids 970-2527], GST-tagged) (Homo sapiens (Human))
- Sequence (Q5S007 970-2527): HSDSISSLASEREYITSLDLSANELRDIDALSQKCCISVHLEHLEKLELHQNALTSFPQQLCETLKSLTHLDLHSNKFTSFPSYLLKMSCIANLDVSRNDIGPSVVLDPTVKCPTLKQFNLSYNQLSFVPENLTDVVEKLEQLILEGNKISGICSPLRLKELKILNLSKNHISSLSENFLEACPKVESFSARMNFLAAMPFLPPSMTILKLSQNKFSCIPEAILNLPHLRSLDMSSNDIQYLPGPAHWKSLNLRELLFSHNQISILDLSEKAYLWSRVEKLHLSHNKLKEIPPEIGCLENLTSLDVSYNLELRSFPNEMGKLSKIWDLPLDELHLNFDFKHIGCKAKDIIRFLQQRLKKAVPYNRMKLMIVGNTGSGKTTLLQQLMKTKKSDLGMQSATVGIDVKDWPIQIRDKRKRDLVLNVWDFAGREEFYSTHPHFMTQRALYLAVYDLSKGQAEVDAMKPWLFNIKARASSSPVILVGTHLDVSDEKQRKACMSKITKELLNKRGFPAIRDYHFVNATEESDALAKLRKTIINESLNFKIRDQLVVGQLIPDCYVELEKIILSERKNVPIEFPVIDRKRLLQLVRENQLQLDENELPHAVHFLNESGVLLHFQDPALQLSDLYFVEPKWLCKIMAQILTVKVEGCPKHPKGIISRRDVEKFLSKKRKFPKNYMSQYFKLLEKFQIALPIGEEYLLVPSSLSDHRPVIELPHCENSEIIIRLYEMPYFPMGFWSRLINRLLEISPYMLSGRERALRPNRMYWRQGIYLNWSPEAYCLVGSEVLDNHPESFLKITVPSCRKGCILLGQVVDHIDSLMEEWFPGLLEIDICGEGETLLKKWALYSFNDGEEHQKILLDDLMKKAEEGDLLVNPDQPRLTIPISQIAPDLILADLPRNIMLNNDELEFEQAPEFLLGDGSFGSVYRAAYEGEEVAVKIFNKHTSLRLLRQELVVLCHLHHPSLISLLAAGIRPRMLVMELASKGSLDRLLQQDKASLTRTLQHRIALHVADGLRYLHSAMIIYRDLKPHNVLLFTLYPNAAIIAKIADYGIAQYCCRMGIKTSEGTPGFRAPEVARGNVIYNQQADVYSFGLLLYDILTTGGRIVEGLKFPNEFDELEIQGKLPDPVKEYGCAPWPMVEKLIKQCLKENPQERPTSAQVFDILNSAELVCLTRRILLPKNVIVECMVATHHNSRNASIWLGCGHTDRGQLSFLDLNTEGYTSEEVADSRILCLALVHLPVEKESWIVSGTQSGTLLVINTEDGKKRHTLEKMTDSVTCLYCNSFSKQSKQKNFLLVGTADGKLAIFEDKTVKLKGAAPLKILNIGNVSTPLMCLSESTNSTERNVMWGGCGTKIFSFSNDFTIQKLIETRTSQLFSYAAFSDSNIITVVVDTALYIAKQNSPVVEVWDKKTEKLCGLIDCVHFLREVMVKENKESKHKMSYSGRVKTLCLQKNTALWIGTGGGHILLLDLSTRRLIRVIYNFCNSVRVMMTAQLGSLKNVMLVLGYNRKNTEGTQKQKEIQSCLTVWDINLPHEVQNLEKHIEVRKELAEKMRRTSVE
- METHOD_NOTES: LRRK2 Enzymatic Assay
- Type: biochemical
- ASSAY_CONDITIONS: LRRKtide substrate, [32P]-ATP
pIC50: −log10 of the molar value.
READOUT_TYPE: pIC50

>>> measured_result("CNC[C@H]1CC[C@H](COc2nc(Nc3ccc(N4CCOCC4)cc3)ncc2Cl)CC1")
"> 7.30"
>>> measured_result("COc1cnc(Nc2ccc(N3CCOCC3)cc2)nc1OCC1CCCCC1")
"> 7.30"
>>> measured_result("O[C@H]1CC[C@H](COc2nc(Nc3cnn(C4CCOCC4)c3Cl)ncc2F)CC1")
"> 7.30"
>>> measured_result("CC(=O)N[C@H]1CC[C@H](COc2nc(Nc3cnn(CCO)c3Cl)ncc2F)CC1")
"> 7.30"
>>> measured_result("C[C@@H]1CN(c2ccc(Nc3ncc(F)c(OCC4(F)CCN(C)CC4)n3)cc2)C[C@H](C)O1")
"6.70 to 7.30"
>>> measured_result("Cn1ccc(Nc2nccc(OC[C@H]3CC[C@@H](N)CC3)n2)n1")
"6.70 to 7.30"

[Q] Find the recorded pIC50 belonging to Clc1cnc(Nc2ccc(N3CCOCC3)cc2)nc1OCC1CCCCC1 and report it.
[A] > 7.30

[Q] Look up pIC50 for this compound: N[C@H]1CC[C@@H](COc2nc(Nc3ccc(N4CCOCC4)cc3)ncc2Cl)C1
[A] > 7.30
